- procedure-details: dP/dt value of the compound
- Assay type: functional
- Parameters: unit not given here
measured-quantity: dP/dt

compound="NC(C/C=C/c1ccccc1)Cc1c[nH]cn1 (stereo not given)" assay_result=68
compound=CCCCCCC(=O)NCCc1c[nH]cn1 assay_result=146
compound=CN(CCc1c[nH]cn1)Cc1ccco1 assay_result=-6
compound="CN(C)CCCSC(=N)N [DIMAPRIT]" assay_result=93
compound="CC(CCc1ccc(O)cc1)N(C)CCc1c[nH]cn1 (stereo not given)" assay_result=29
